B1: OR4K15 (parent)
chain: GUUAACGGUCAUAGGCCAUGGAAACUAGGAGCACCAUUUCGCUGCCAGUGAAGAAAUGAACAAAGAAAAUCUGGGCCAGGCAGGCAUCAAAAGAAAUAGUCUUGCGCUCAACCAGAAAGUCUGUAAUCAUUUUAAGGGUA

variants of: B1; assay: self-cleavage, relative activity (ratio to wild type); higher = more cleavage; in vitro, sequencing; the parent is a self-cleaving ribozyme
Test Readout: self-cleavage

Sample answers from the record:
> print(dat)
   mutation.annotation   test.readout  assay.value
1          U108A U127C  self-cleavage            0
2           A92G A135G  self-cleavage         1.48

Exam item: Output measured self-cleavage for this item: A62G A78U
Marked response: 0.19

Exam item: Check the records and state self-cleavage for A52G A64G
Marked response: 0.9

Exam item: Using the record for A52G A86U , state its measured self-cleavage.
Marked response: 1.33

Exam item: Specify measured self-cleavage for A59G A82U .
Marked response: 0.34

Exam item: Give the value of self-cleavage reported for the following: A52C U108C
Marked response: 0.03

Exam item: Indicate its recorded self-cleavage; the variant in question is A96G U120A
Marked response: 2.74

The reported measurements were obtained from the RNAGym collection of RNA variant scans (doi:10.7554/elife.90254).
